All figures here come from paper PMC5540273.

- Tested on: JAK3(JH1domain-catalytic)
- TEST_SETTINGS: concentration: 1 μM, replicates: in singlicate; n = 1;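 note: KINOMEscan kinase panel screen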
The following compounds are listed with their measured %Inh values.
# unit: % | format: bare number

Solved cases (6 shown):
| COMPOUND | TESTED_SYSTEM | %Inh [%] |
| --- | --- | --- |
| CN(c1ccc(F)c(NC(=O)c2cccc(OC(C)(C)C#N)c2Cl)c1)c1ccc2nc(NC(=O)C3CC3)sc2n1 | JAK3(JH1domain-catalytic) | 0 |
| O=C(Nc1n[nH]c2cc(-c3cccs3)ccc12)C1CC1 | JAK3(JH1domain-catalytic) | 0 |
| CSc1ccc(NC2=C(c3ccc(Cl)cc3)C(=O)NC2=O)cc1 | JAK3(JH1domain-catalytic) | 0 |
| Cc1nn2c(=O)cc(N3CCO[C@H](C)C3)nc2n1Cc1cccc(Cl)c1Cl | JAK3(JH1domain-catalytic) | 0 |
| Fc1cc(Cl)ccc1Nc1ccnc2cc(-c3ccc(CN4CCOCC4)o3)ccc12 | JAK3(JH1domain-catalytic) | 0 |
| Cc1cc(-c2ccnc(Nc3cccc(C#N)c3)n2)cc(C)c1O | JAK3(JH1domain-catalytic) | 74 |

Data request: So what's the measured %Inh for this one? `Cc1cccc(Nc2nc(NCCN)ncc2C(N)=O)c1`
Data returned: 0

Data request: How about this compound: `CS(=O)(=O)c1cccc(CNc2nc(Nc3ccc4c(c3)CCC(=O)N4)ncc2C(F)(F)F)c1`
Data returned: 100

Data request: Note, next up: `Cn1cc(-c2cnc(N)c3c(-c4ccc5c(c4)CCN5C(=O)Cc4ccccc4)csc23)cn1`
Data returned: 0

Data request: Note, next up: `COc1cc(Nc2ccnc3cc(-c4ccncc4)ccc23)cc(OC)c1OC.Cl`
Data returned: 0

Data request: Let us now turn to `COc1cccc(CC(=O)N2CCc3cc(-c4cn(C)c5ncnc(N)c45)ccc32)c1`
Data returned: 0

Data request: What do you have for `CCNC(=O)/C=C/c1n[nH]c2cc(Sc3ccccc3C(=O)NC)ccc12` ?
Data returned: 18

###

- Test system: JNK2
- Construct: gene MAPK9
- TEST_SETTINGS: concentration: 1 μM, replicates: in singlicate; n = 1
Mark label 1 for %Inh under 10%, label 0 if at or over.

Answered cases to consult:
| COMPOUND | TESTED_SYSTEM | CLASS_ASSIGNMENT |
| --- | --- | --- |
| COc1ccc(NC(=O)c2ccoc2)cc1-c1ccc(C(=O)NCC2CC2)cc1 | JNK2 | label 0 |
| O=C(Nc1n[nH]c2cc(-c3cccs3)ccc12)C1CC1 | JNK2 | label 0 |
| N#Cc1cnc2cc(-c3cnc(CNCCN4CCOCC4)s3)ccc2c1Nc1ccc(Oc2ccccc2)cc1 | JNK2 | label 1 |
| COc1cc(Nc2nccc(N3CCC(NC(=O)Nc4ccc5c(c4)OCO5)C3)n2)cc(OC)c1OC (centres unmarked) | JNK2 | label 1 |
| Cl.Cl.NC(CNC(=O)c1cc(Br)c(-c2ccnc3[nH]ccc23)s1)c1ccccc1 (centres unmarked) | JNK2 | label 0 |
| CN(c1ccc(F)c(NC(=O)c2cccc(OC(C)(C)C#N)c2Cl)c1)c1ccc2nc(NC(=O)C3CC3)sc2n1 | JNK2 | label 1 |
| Cl.O=C(Nc1ccc(Oc2ccc3[nH]c(NC(=O)c4ccco4)nc3c2)cc1)Nc1cc(C(F)(F)F)ccc1F | JNK2 | label 0 |
| Cc1ccccc1CC(=O)N1CCc2cc(-c3cn(C)c4ncnc(N)c34)ccc21 | JNK2 | label 0 |
| Fc1cc(Cl)ccc1Nc1ccnc2cc(-c3ccc(CN4CCSCC4)o3)ccc12 | JNK2 | label 0 |
| CN(c1ccc(NC(=O)Nc2cccc(Cl)c2)cc1)c1ccnc(N)n1.Cl | JNK2 | label 1 |

Data request: Please indicate whether the reported %Inh of `CCn1cnc2c(NCc3ccccc3)ncnc21` is strictly below 10%.
Data returned: label 1

Data request: What do you get for `CCn1c(-c2nonc2N)nc2c(-c3ccccc3)ncc(OCCCN)c21.O=C(O)C(F)(F)F.O=C(O)C(F)(F)F` ?
Data returned: label 0

Data request: Can you handle `CCOc1nccc(-c2c(-c3ccc(F)cc3)ncn2C2CCNCC2)n1` next?
Data returned: label 0

Data request: // repeat for `c1ccc(Oc2ccc(Nc3ccnc4cc(-c5ccc(CN6CCCCC6)o5)ccc34)cc2)nc1` and report
Data returned: label 0

Data request: Next compound: `CN(c1ccc(NC(=O)N2CCN(CCCN3CCOCC3)CC2)cc1)c1ccnc(Nc2ccc(CS(C)(=O)=O)cc2)n1.Cl`
Data returned: label 1

Data request: Same question for `CCNC(=O)/C=C/c1n[nH]c2cc(Sc3ccccc3C(=O)NC)ccc12` please.
Data returned: label 1

Data request: Try this compound next: `CNc1nccc(-c2ccc3c(N)n[nH]c3c2)n1`
Data returned: label 0

Data request: Now consider `CSc1ccc(NC2=C(c3ccc(Cl)cc3)C(=O)NC2=O)cc1` and answer again.
Data returned: label 0

Data request: Query `Nc1ncc(-c2ccc3nccc(-c4ccncc4)c3c2)cc1S(=O)(=O)N1CCCCC1` next
Data returned: label 0

Data request: And what about the compound `COc1cccc(NC(=O)NCCNc2ccnc(Nc3ccc(F)cc3)n2)c1` ?
Data returned: label 0
